target_or_test_system: Full-length, wild-type calmodulin (paramecium sequence) (paramecium, UniProt P07463 1-149)
protocol_details: other fluorescence titration

{"binder": "KRKQEEVSAIVIQRAYRRYLLKQKVKK (domain or fragment) [NaV1.2 IQ biosensor (rat NaV1.2 residues 1901-1927 flanked by YFP and CFP)]", "Kd, nM": 85}

Provenance of the data: paper PMC5503752
